System: KM12 colon
Test: NCI tumour cell line growth inhibition, 48 h

>  <compound>
COc1ccc(OC)c(/C=N/N=C2\C(=O)Nc3c(Cl)cc(Cl)cc32)c1

>  <TGI>
> 100 µM

$$$$
>  <compound>
COC(=O)CCC(C)[C@H]1CCC2C3C(C[C@H](OC(C)=O)[C@@]21C)[C@@]1(C)CCC2(C[C@H]1C[C@H]3OC(C)=O)OOC1(CCCCC1)OO2 (stereo not given in full)

>  <TGI>
> 100 µM

$$$$
>  <compound>
C/C(=N\NC(=S)Nc1ccc(Cl)cc1)c1nc2ncccc2[nH]1

>  <TGI>
16.4 µM

$$$$
>  <compound>
CC(=O)Oc1cc(S(=O)(=O)Nc2n[nH]c(N)n2)c(S)cc1Cl

>  <TGI>
> 100 µM

$$$$
>  <compound>
Cc1ccc(Nc2nc(C)c(C(/C=C/c3ccc4c(c3)OCO4)=N/Nc3ccc([N+](=O)[O-])cc3[N+](=O)[O-])s2)c([N+](=O)[O-])c1

>  <TGI>
> 100 µM

$$$$

====

System: UACC-62 melanoma
Experiment: NCI tumour cell line growth inhibition, 48 h
Recorded measurements of TGI, one per entry
readout label: TGI

>  <molecule>
CN(C)C(=O)Oc1ccc(C(=S)Nc2ccccc2)cc1Br

>  <system under test>
UACC-62 melanoma

>  <reported measurement>
74.4 µM

$$$$
>  <molecule>
CCN(CC)CCC(=O)O[C@H]1CC[C@H](CC(C)[C@H]2CC(=O)C(C)C=C(C)[C@H](OC(=O)CCN(CC)CC)C(OC)C(=O)[C@@H](C)CC(C)/C=C/C=C/C=C(C)C(OC)CC3CC[C@H](C)[C@](O)(O3)C(=O)C(=O)N3CCCCC3C(=O)O2)CC1OC (stereo not given in full)

>  <system under test>
UACC-62 melanoma

>  <reported measurement>
1.99 µM

$$$$
>  <molecule>
CN(C)Cc1[nH]c2ccccc2c1C(=O)c1ccccc1

>  <system under test>
UACC-62 melanoma

>  <reported measurement>
> 100 µM

$$$$
>  <molecule>
O=C(NC1C=Nc2ccccc2NC1=O)c1ccccc1Cl (stereo not given)

>  <system under test>
UACC-62 melanoma

>  <reported measurement>
> 100 µM

$$$$
>  <molecule>
COC1(Cc2ccccc2)C(=O)c2ccccc2N1C(C)=O (stereo not given)

>  <system under test>
UACC-62 melanoma

>  <reported measurement>
> 100 µM

$$$$
>  <molecule>
CCOC(=O)NC(=S)NC(C)c1ccccc1 (stereo not given)

>  <system under test>
UACC-62 melanoma

>  <reported measurement>
> 100 µM

$$$$
>  <molecule>
COC(=O)CNCC1OC2OC(C)(C)OC2C1N=[N+]=[N-] (stereo not given)

>  <system under test>
UACC-62 melanoma

>  <reported measurement>
> 100 µM

$$$$
>  <molecule>
N#Cc1c(N2CCOCC2)ncn(-c2ccc(Cl)cc2)c1=O

>  <system under test>
UACC-62 melanoma

>  <reported measurement>
> 100 µM

$$$$
>  <molecule>
Cc1nc2nn(C)cc2c(=O)n1/N=C/c1ccccc1

>  <system under test>
UACC-62 melanoma

>  <reported measurement>
> 100 µM

$$$$
>  <molecule>
CN(C)CC1=Nc2cccc3cccc(c23)N1

>  <system under test>
UACC-62 melanoma

>  <reported measurement>
29.6 µM

$$$$
